Attribution: patent US9073916B2

- experimental details: in vivo
- run conditions: female, CD-1 nude, mouse, ip
measurement label: MTD (µmol/kg)
Number only, in µmol/kg; omit the unit.

Looking for the measured MTD of CN(C)C/C=C/C(=O)Nc1ccc2ncnc(Nc3cccc(Br)c3)c2c1 [Compound 11, reference compound] , can you help?
100

====

- measurement target: erbB2 (Homo sapiens)
- Sequence (P04626 23-1255): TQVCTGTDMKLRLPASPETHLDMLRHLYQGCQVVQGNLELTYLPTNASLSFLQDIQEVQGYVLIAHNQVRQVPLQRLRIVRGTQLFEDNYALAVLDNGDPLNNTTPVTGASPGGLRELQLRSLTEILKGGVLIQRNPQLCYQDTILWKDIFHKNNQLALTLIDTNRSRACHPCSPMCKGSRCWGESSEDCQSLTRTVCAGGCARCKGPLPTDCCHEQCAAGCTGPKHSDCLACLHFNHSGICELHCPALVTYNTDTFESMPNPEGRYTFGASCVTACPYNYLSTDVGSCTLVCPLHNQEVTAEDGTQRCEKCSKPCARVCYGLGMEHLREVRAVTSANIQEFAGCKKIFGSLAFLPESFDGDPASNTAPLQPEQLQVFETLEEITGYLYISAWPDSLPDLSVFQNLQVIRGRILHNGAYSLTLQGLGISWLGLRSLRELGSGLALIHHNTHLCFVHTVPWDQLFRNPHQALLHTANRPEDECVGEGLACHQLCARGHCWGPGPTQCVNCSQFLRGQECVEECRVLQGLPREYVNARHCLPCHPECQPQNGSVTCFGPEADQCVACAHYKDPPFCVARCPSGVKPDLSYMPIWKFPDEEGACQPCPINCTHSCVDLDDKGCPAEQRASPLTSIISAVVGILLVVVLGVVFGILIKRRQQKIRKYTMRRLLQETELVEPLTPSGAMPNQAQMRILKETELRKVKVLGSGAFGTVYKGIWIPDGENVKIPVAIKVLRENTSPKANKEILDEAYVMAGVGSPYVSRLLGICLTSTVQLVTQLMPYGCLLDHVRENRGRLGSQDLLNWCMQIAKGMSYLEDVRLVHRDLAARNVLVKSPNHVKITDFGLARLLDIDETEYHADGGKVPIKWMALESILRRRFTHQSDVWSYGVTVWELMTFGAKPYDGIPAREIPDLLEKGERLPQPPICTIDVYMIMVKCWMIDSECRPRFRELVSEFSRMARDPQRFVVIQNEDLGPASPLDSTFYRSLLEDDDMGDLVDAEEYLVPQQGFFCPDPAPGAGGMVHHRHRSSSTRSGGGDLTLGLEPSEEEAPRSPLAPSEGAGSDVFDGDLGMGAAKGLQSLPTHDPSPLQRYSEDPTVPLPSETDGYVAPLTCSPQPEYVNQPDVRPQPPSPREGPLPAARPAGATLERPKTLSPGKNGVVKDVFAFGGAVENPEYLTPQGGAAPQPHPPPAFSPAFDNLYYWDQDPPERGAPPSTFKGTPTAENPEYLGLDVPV
- experimental details: Inhibition of basal phospho-erbB2 in SKOV3 cells (Western blot)
- Format: cell-based
- Parameters: endogenous in cells; host or cells: SKOV3 human ovarian carcinoma cells
- run conditions: SKOV3 cells; read-out: cellular erbB2 IC50
measurement label: pIC50
// returns pIC50 (minus log10 of molar concentration), number only

What pIC50 appears in the records for this compound with erbB2 (Homo sapiens)? "CN(C)C/C=C/C(=O)Nc1cc2c(Nc3ccc(F)c(Br)c3)ncnc2cn1"
8.22

====

- experimental details: Pulse radiolysis (E(1) and fragmentation rate)
- Type: physicochemical
- run conditions: determined against methylviologen
We begin with a simple list: items and their reported E (1)/V (one-electron reduction potential).
Number only, in V; omit the unit.

>  <chem smiles>
Cn1cnc([N+](=O)[O-])c1C[N+](C)(C)C/C=C/C(=O)Nc1ccc2ncnc(Nc3cccc(Br)c3)c2c1.[Br-]

>  <assay value>
−0.427

$$$$
>  <chem smiles>
CC[N+](CC)(CCOc1ccc(Nc2ncc3cc(-c4c(Cl)cccc4Cl)c(=O)n(C)c3n2)cc1)Cc1c([N+](=O)[O-])nc(C)n1C.[Br-]

>  <assay value>
−0.456

$$$$
>  <chem smiles>
Cn1c(C[N+](C)(C)C/C=C/C(=O)Nc2ccc3ncnc(Nc4cccc(Br)c4)c3c2)ccc1[N+](=O)[O-].[Br-]

>  <assay value>
−0.493

$$$$
>  <chem smiles>
C[N+](C)(C/C=C/C(=O)Nc1ccc2ncnc(Nc3cccc(Br)c3)c2c1)Cc1ccccc1[N+](=O)[O-]

>  <assay value>
−0.388

$$$$
>  <chem smiles>
Cn1ncc([N+](=O)[O-])c1C[N+](C)(C)C/C=C/C(=O)Nc1ccc2ncnc(Nc3cccc(Br)c3)c2c1

>  <assay value>
−0.449

$$$$

Looking for the measured E (1)/V (one-electron reduction potential) of "Cn1cc([N+](=O)[O-])nc1C[N+](C)(C)C/C=C/C(=O)Nc1ccc2ncnc(Nc3cccc(Br)c3)c2c1" , can you help?
−0.468

====

- experimental details: Steady state radiolytic reduction by the CO2.− radical with HPLC-MS
- Format: physicochemical
- run conditions: HPLC-MS
measurement label: Detection of MNA (methyl nitroaromatic)

Consider the worked cases shown below.
>  <chem smiles>
C[N+](C)(C/C=C/C(=O)Nc1ccc2ncnc(Nc3cccc(Br)c3)c2c1)Cc1ccc([N+](=O)[O-])cc1

>  <Detection of MNA (methyl nitroaromatic)>
No

$$$$
>  <chem smiles>
Cn1c(C[N+](C)(C)C/C=C/C(=O)Nc2ccc3ncnc(Nc4cccc(Br)c4)c3c2)ccc1[N+](=O)[O-].[Br-]

>  <Detection of MNA (methyl nitroaromatic)>
No

$$$$
>  <chem smiles>
Cn1cnc([N+](=O)[O-])c1C[N+](C)(C)C/C=C/C(=O)Nc1ccc2ncnc(Nc3cccc(Br)c3)c2c1.[Br-]

>  <Detection of MNA (methyl nitroaromatic)>
Yes

$$$$
>  <chem smiles>
C[N+](C)(C/C=C/C(=O)Nc1ccc2ncnc(Nc3cccc(Br)c3)c2c1)Cc1ccccc1[N+](=O)[O-]

>  <Detection of MNA (methyl nitroaromatic)>
No

$$$$
>  <chem smiles>
Cn1ncc([N+](=O)[O-])c1C[N+](C)(C)C/C=C/C(=O)Nc1ccc2ncnc(Nc3cccc(Br)c3)c2c1

>  <Detection of MNA (methyl nitroaromatic)>
No

$$$$

Looking for the measured Detection of MNA (methyl nitroaromatic) of "CC[N+](CC)(CCNC(=O)c1c(C)[nH]c(/C=C2\C(=O)Nc3ccc(F)cc32)c1C)Cc1c([N+](=O)[O-])nc(C)n1C.[Br-]" , can you help?
Yes

Looking for the measured Detection of MNA (methyl nitroaromatic) of "CC[N+](CC)(CCOc1ccc(Nc2ncc3cc(-c4c(Cl)cccc4Cl)c(=O)n(C)c3n2)cc1)Cc1c([N+](=O)[O-])nc(C)n1C.[Br-]" , can you help?
Yes

Looking for the measured Detection of MNA (methyl nitroaromatic) of "Cn1cnc([N+](=O)[O-])c1C[N+]1(CCOc2ccc(Nc3ncc4cc(-c5c(Cl)cccc5Cl)c(=O)n(C)c4n3)cc2)CCCCC1.[Br-]" , can you help?
Yes

Looking for the measured Detection of MNA (methyl nitroaromatic) of "CC[N+](CC)(CCOc1ccc(Nc2ncc3cc(-c4c(Cl)cccc4Cl)c(=O)n(C)c3n2)cc1)Cc1c([N+](=O)[O-])ncn1C.[Br-]" , can you help?
Yes

Looking for the measured Detection of MNA (methyl nitroaromatic) of "CC[N+](CC)(CCNC(=O)c1c(C)[nH]c(/C=C2\C(=O)Nc3ccc(F)cc32)c1C)Cc1c([N+](=O)[O-])ncn1C.O=C([O-])C(F)(F)F" , can you help?
Yes

Looking for the measured Detection of MNA (methyl nitroaromatic) of "Cn1cnc([N+](=O)[O-])c1C[n+]1ccc(Nc2ncc3cc(-c4c(Cl)cccc4Cl)c(=O)n(C)c3n2)cc1.[Br-]" , can you help?
No

Looking for the measured Detection of MNA (methyl nitroaromatic) of "Cn1cc([N+](=O)[O-])nc1C[N+](C)(C)C/C=C/C(=O)Nc1ccc2ncnc(Nc3cccc(Br)c3)c2c1" , can you help?
No
